- System: HIV-IIIb (wildtype)
- protocol.summary: Antiviral assay in MT4 cells, HIV-IIIb wildtype
- Format: cell-based, HIV-1
- conditions: Human immunodeficiency virus 1, IIIB, MT4, 120 h, read-out: WT EC50
quantity.kind: EC50 (nM)
The response must be a number in nM with no trailing unit.

compound: CC(=O)N1CC(N2CCC(c3nn(C4CC4)c4ccc(-c5nc6cc(C)c([C@H](OC(C)(C)C)C(=O)O)c(-c7ccc(Cl)cc7)c6s5)cc34)CC2)C1 [Compound 45]
EC50 (nM): 17
--
compound: Cc1cc2nc(-c3ccc4c(c3)c(C3CCN(C5COC5)C3)nn4C)sc2c(-c2ccc(Cl)cc2)c1[C@H](OC(C)(C)C)C(=O)O (stereo partly drawn) [Compound 70]
EC50 (nM): 7

Proceeding to the next compound to report its EC50.
Just so you know, measured EC50 for Cc1cc2nc(-c3ccc4c(c3)c(N3CC5(COC5)C3)nn4C)sc2c(-c2ccc(Cl)cc2)c1[C@H](OC(C)(C)C)C(=O)O [Compound 91] came out at 11

====

- Tested on: HIV-IIIb IN T174I DE
- protocol.summary: Antiviral assay in MT4 cells, HIV-IIIb IN T174I DE virus (from dose escalation passaging)
- Type: cell-based, HIV-1
- conditions: Human immunodeficiency virus 1, IIIB, MT4, 120 h, read-out: T174I DE EC50, MT4 cells, HIV-IIIb IN T174I DE (dose escalation), 5 days, CellTiter-Glo
- Protocol: Antiviral Assay in MT4 Cells […] Assay plates were then maintained in a humidified, 5% CO2 incubator at 37° C. […] Cell lysis was carried out by incubating at room temperature for 10 minutes and then chemiluminescence was read using an Envision plate reader (PerkinElmer). […]
Quick reference for pEC50 among some molecules
In simple prose, pEC50 is minus the logarithm base ten of a concentration in moles per litre.

molecule: Cc1cc2nc(-c3ccc4c(c3)c(C3CCN(C(=O)C5(C)CCCO5)CC3)nn4C)sc2c(-c2ccc(Cl)cc2)c1[C@H](OC(C)(C)C)C(=O)O (stereo partly drawn) [Compound 158]
tested.target: HIV-IIIb IN T174I DE
pEC50: 5.78

molecule: Cc1cc2nc(-c3ccc4c(c3)c(C3CCN(C5CS(=O)(=O)C5)CC3)nn4C)sc2c(-c2ccc(Cl)cc2)c1[C@H](OC(C)(C)C)C(=O)O [Compound 10]
tested.target: HIV-IIIb IN T174I DE
pEC50: 6.52

molecule: Cc1cc2nc(-c3ccc4c(c3)c(N3CCN5C(=O)COC[C@@H]5C3)nn4C)sc2c(-c2ccc(Cl)cc2)c1[C@H](OC(C)(C)C)C(=O)O [Compound 138]
tested.target: HIV-IIIb IN T174I DE
pEC50: 6.17

Notebook: Cc1cc2nc(-c3ccc4c(n3)c(C3CCN([C@H]5CCN(C)C5)CC3)nn4C)sc2c(-c2ccc(Cl)cc2)c1[C@H](OC(C)(C)C)C(=O)O [Compound 172] , pEC50 read as 6.93

Record Cc1cc2nc(-c3ccc4c(c3)c(C3CCN(C5CCC5)CC3)nn4C)sc2c(-c2ccc(Cl)cc2)c1[C@H](OC(C)(C)C)C(=O)O [Compound 129] , field pEC50: 6.16

Documented pEC50 of CCn1nc(C2CCN(C3CN(C(=O)OC)C3)CC2)c2cc(-c3nc4cc(C)c([C@H](OC(C)(C)C)C(=O)O)c(-c5ccc(Cl)cc5)c4s3)ccc21 [Compound 48] : 6.78
